- procedure_summary: NCI Yeast Anticancer Drug Screen. Data for the mlh1 rad18 strain (AID 175)
- test_settings: S. cerevisiae mlh1 rad18 strain growth inhibition; at 50.0 µM; hits give high values
This is part of a sample that, as a whole, favours compounds with a hit. Of some 79,000 tested, about 15% had one in any assay.
Catalogue of compounds with associated growth inhibition

[
  {
    "compound": "O=S(=O)(Cl)c1c(F)c(F)c(F)c(F)c1F",
    "growth inhibition, %": -21.4
  },
  {
    "compound": "C=CCc1cc(OC)ccc1O",
    "growth inhibition, %": 19.6
  },
  {
    "compound": "O=C(O)C(C(=O)O)C1CCCCCC1",
    "growth inhibition, %": 14.2
  },
  {
    "compound": "CC[C@]1(O)C(=O)OCc2c1cc1n(c2=O)Cc2cc3c(N)cccc3nc2-1",
    "growth inhibition, %": 45
  },
  {
    "compound": "Cc1ccsc1/C=N/NC(N)=S",
    "growth inhibition, %": 28.7
  },
  {
    "compound": "O=C1c2ccccc2C2(O)Oc3cccc(O)c3C12O (stereo not given)",
    "growth inhibition, %": 49.9
  },
  {
    "compound": "O=CC(Cc1ccccc1)C(=O)CCc1ccccc1.[Cu+2] (stereo not given)",
    "growth inhibition, %": 2.55
  },
  {
    "compound": "CCN(CC)c1ccc(-c2ccccc2)cc1",
    "growth inhibition, %": 8.5
  },
  {
    "compound": "N=C1N(S(=O)(=O)c2ccccc2)[C@@H](Cc2ccccc2)[C@H](c2ccccc2)C1(c1ccccc1)c1ccccc1",
    "growth inhibition, %": 18.2
  },
  {
    "compound": "O=[N+]([O-])C(/C=C(\\Cl)[N+](=O)[O-])=C(N1CCOCC1)N1CCOCC1",
    "growth inhibition, %": 5.45
  }
]
